- target.desc: Macrophage-stimulating protein receptor (Homo sapiens) (UniProt Q04912)
- Sequence (Q04912 25-304 limits assumed): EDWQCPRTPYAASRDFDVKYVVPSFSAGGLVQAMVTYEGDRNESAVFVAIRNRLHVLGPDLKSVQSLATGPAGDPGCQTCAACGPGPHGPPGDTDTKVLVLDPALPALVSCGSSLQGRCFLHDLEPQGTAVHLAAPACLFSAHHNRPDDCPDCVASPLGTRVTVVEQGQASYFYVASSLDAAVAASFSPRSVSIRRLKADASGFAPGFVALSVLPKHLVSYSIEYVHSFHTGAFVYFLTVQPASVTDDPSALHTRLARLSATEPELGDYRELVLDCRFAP
- Sequence (Q04912 310-1400 limits assumed): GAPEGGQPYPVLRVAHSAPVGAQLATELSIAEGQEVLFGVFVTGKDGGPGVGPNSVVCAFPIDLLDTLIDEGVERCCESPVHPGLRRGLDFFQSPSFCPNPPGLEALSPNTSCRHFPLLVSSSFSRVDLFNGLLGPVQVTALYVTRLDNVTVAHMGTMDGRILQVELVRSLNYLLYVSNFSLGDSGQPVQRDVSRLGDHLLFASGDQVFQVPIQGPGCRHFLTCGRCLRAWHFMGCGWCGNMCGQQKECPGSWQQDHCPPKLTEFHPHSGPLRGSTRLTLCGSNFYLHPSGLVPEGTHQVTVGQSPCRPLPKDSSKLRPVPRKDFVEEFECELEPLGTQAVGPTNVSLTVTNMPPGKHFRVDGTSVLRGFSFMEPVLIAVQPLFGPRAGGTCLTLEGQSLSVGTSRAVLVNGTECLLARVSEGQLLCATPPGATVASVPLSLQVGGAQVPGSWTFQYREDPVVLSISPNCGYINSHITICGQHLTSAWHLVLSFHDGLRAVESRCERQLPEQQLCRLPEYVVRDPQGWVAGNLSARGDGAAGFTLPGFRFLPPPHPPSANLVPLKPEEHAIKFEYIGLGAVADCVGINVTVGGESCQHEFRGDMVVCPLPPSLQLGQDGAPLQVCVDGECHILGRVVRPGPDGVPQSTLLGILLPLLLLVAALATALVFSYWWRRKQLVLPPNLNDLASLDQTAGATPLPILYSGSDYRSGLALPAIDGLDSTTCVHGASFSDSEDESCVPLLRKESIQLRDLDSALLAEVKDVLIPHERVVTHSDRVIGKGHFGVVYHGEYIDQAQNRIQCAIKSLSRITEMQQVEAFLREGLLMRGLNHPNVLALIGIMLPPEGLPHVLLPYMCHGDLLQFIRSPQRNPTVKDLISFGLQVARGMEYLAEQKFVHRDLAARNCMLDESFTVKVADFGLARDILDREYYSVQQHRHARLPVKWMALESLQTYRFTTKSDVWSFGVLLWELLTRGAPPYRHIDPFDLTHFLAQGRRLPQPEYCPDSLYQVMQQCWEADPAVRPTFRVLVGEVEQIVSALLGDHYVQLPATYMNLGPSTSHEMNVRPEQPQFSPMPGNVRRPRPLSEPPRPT
- stated.conditions: at 1 µM
measure.name: residual activity (%)
// return numeric value only (unit: %, not printed)

Use the examples below as a reference point.
>>> data_value("Oc1ccc(-c2nc(-c3ccc(F)cc3)c(-c3ccncc3)[nH]2)cc1")
84
>>> data_value("COc1ccc(CNc2nc(N(CCO)CCO)nc3c2ncn3C(C)C)cc1")
76
>>> data_value("c1ccc(-c2n[nH]c3c2oc2ccccc23)cc1")
58

// map Cc1cc2ncc(-c3ccccc3)nc2cc1C to recorded residual activity (system: Macrophage-stimulating protein receptor (Homo sapiens) (UniProt Q04912)) 92

Requested read-out residual activity, target or system Macrophage-stimulating protein receptor (Homo sapiens) (UniProt Q04912), entry N#Cc1cnc2cnc(NCc3cccnc3)cc2c1Nc1ccc(F)c(Cl)c1 100

Give Macrophage-stimulating protein receptor (Homo sapiens) (UniProt Q04912) residual activity for NC(=O)c1ccc2[nH]c(-c3ccc(Oc4ccc(Cl)cc4)cc3)nc2c1 74

====

- target.desc: NUAK family SNF1-like kinase 1 (Homo sapiens) (UniProt O60285)
- Sequence (whole entry): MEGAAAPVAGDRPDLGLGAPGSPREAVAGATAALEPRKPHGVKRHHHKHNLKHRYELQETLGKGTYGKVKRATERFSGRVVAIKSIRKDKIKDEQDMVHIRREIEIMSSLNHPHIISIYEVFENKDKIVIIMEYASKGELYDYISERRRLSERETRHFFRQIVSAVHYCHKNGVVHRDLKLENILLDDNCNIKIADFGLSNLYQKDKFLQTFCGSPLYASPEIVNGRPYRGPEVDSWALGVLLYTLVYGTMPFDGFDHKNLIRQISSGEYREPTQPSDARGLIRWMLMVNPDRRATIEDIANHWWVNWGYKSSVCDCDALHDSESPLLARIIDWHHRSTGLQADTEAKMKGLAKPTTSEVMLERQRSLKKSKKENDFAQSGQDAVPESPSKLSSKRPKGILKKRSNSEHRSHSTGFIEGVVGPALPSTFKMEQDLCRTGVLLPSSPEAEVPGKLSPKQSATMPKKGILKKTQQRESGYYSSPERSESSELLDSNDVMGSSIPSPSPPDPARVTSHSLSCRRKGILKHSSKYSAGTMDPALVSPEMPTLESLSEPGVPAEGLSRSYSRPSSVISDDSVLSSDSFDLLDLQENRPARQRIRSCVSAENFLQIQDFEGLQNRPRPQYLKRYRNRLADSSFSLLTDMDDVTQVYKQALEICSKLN
- stated.conditions: at 10 µM
measure.name: residual activity

// worked examples, residual activity included
>>> data_value("N#C/C(=C(\\N)Sc1ccc(N)cc1)c1ccccc1C(F)(F)F")
"62%"
>>> data_value("CN(C)CCCn1cc(C2=C(c3c[nH]c4ccccc34)C(=O)NC2=O)c2ccccc21")
"11%"
>>> data_value("N#CC(C#N)=C(N)/C(C#N)=C/c1ccc(O)cc1")
"96%"
>>> data_value("CC(=O)c1ccc(N2CCOCC2)cc1O")
"92%"
>>> data_value("CN(C)c1ccc(/C=C2\\C(=O)Nc3ccccc32)cc1")
"80%"

Proceed to the following item.
Request - read-out residual activity | tested on NUAK family SNF1-like kinase 1 (Homo sapiens) (UniProt O60285) | compound CO[C@H]1[C@@H](OC)C[C@H](C)[C@@H](OC)C2=CC(=O)C=C(NC(=O)/C(C)=C/C=C/[C@H](OC)[C@@H](OC(N)=O)/C(C)=C/[C@@H]1C)C2=O 94%

====

- target.desc: Tyrosine-protein kinase TXK (Homo sapiens)
- Sequence (whole entry): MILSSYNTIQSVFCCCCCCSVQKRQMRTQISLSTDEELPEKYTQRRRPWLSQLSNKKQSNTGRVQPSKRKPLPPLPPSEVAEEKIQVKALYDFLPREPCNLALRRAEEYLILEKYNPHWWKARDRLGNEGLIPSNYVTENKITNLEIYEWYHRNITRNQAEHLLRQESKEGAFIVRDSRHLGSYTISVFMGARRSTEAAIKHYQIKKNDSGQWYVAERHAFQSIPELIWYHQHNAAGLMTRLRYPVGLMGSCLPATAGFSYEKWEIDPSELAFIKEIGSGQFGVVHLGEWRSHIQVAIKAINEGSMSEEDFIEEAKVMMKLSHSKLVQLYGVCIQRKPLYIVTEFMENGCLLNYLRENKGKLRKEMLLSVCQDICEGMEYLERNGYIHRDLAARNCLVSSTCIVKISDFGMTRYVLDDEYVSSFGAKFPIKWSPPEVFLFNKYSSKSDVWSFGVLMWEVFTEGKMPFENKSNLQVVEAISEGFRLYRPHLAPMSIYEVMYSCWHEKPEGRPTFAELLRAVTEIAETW
- stated.conditions: at 10 µM
Listing of recorded residual activity by entry.
Reply with the number and its unit after it.

Reference set (5 entries):
>>> data_value("c1ccc(-c2n[nH]c3c2oc2ccccc23)cc1")
"73%"
>>> data_value("COc1ccc(CNc2nc(N(CCO)CCO)nc3c2ncn3C(C)C)cc1")
"89%"
>>> data_value("N#Cc1cnc2cnc(NCc3cccnc3)cc2c1Nc1ccc(F)c(Cl)c1")
"69%"
>>> data_value("O=C1Nc2ccccc2/C1=C1/Nc2ccccc2/C1=N\\OCCC(O)CO (configuration not stated)")
"3%"
>>> data_value("Ic1cccc(CSc2nnc(-c3ccncc3)o2)c1")
"81%"

Quick check: residual activity of Cc1cncc2cccc(S(=O)(=O)N3CCCN(C(=O)CN)C[C@H]3C)c12 ? 91%

====

- target.desc: Testis-specific serine/threonine-protein kinase 1 (Homo sapiens)
- Sequence (whole entry): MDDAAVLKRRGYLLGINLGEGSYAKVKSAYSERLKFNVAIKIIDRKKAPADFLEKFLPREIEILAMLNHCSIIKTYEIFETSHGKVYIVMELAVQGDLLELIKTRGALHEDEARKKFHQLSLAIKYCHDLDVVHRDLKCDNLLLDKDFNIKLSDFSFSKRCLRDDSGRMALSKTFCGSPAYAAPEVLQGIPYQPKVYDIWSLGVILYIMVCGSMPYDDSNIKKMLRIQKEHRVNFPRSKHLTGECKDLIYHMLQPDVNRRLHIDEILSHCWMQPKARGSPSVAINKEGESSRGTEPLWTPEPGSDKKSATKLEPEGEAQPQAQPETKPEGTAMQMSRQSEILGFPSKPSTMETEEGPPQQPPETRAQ
- stated.conditions: at 10 µM
measure.name: residual activity

Use these answered entries as a reference point.
>>> data_value("CNc1cc2c(Nc3cccc(Br)c3)ncnc2cn1")
"90%"
>>> data_value("Nc1cccc(-c2cc3c(Oc4cccc(O)c4)ncnc3[nH]2)c1")
"71%"
>>> data_value("CN(C)CCCn1cc(C2=C(c3c[nH]c4ccccc34)C(=O)NC2=O)c2ccccc21")
"37%"

// moving on: another record for residual activity
Find the measured residual activity: item Cc1cc(Nc2nc(-c3ccccc3)nc3ccccc23)n[nH]1 , target or system Testis-specific serine/threonine-protein kinase 1 (Homo sapiens). 25%

====

As shown below, each of these compounds has a reported residual activity value.
- target.desc: cAMP-dependent protein kinase catalytic subunit PRKX (Homo sapiens) (UniProt P51817)
- Sequence (whole entry): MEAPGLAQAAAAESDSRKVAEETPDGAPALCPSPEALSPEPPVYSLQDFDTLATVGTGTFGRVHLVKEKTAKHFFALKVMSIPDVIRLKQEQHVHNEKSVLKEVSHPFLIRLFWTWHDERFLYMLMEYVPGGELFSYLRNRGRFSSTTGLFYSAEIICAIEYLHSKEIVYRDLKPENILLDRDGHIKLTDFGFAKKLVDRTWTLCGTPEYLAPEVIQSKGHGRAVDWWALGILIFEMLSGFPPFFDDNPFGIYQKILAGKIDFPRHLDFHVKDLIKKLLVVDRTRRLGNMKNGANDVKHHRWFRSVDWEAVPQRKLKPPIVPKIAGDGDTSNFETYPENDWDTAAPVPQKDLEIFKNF
- stated.conditions: at 10 µM

>>> data_value("CC[n+]1c(/C=C/N(C)c2ccccc2)n(-c2ccccc2)c2ccc(-c3nc4ccccc4s3)cc21")
"63%"

I am curious: what residual activity value has been reported for O=c1cc(-c2cccc3c2Sc2ccccc2S3)oc(N2CCOCC2)c1 ? 72%

# lookup: residual activity of O=C1NC(=O)c2c1c1c3ccccc3[nH]c1c1[nH]c3cc(Br)ccc3c21 77%

Any idea what its residual activity is? The compound is Cc1cc(Nc2nc(-c3ccccc3)nc3ccccc23)n[nH]1 38%

Please report the recorded residual activity for Cc1cc2ncc(-c3ccccc3)nc2cc1C . 97%

Can you share its residual activity? I mean this compound: Cn1cc(/C=C2\C(=O)Nc3ccc(S(N)(=O)=O)cc32)c2ccccc21 59%

Can you look up the measured residual activity of CCN(CC)C(=O)c1ccc(Nc2nc(OCC3CCCCC3)c3nc[nH]c3n2)cc1 for me? 23%

Given CC(=O)O/N=C1\C(=C2\C(=O)Nc3cc(Br)ccc32)Nc2ccccc21 , state its recorded residual activity. 93%

Query (compound): O=C(Nc1cccc(Nc2cc(Nc3cccc(C(F)(F)F)c3)ncn2)c1)C1CC1 ; field requested: residual activity 100%

Query: residual activity; subject: O=C(Nc1cccc(Nc2nccc(Nc3cccc(C(F)(F)F)c3)n2)c1)C1CC1 51%

Given COc1ccc(C(=O)Nc2sc3c(c2C(N)=O)CCCC3)cc1OC , state its recorded residual activity. 95%
